Target desc: PGR (gene 5241) (UniProt P06401)
Sequence (P06401 whole entry, looked up): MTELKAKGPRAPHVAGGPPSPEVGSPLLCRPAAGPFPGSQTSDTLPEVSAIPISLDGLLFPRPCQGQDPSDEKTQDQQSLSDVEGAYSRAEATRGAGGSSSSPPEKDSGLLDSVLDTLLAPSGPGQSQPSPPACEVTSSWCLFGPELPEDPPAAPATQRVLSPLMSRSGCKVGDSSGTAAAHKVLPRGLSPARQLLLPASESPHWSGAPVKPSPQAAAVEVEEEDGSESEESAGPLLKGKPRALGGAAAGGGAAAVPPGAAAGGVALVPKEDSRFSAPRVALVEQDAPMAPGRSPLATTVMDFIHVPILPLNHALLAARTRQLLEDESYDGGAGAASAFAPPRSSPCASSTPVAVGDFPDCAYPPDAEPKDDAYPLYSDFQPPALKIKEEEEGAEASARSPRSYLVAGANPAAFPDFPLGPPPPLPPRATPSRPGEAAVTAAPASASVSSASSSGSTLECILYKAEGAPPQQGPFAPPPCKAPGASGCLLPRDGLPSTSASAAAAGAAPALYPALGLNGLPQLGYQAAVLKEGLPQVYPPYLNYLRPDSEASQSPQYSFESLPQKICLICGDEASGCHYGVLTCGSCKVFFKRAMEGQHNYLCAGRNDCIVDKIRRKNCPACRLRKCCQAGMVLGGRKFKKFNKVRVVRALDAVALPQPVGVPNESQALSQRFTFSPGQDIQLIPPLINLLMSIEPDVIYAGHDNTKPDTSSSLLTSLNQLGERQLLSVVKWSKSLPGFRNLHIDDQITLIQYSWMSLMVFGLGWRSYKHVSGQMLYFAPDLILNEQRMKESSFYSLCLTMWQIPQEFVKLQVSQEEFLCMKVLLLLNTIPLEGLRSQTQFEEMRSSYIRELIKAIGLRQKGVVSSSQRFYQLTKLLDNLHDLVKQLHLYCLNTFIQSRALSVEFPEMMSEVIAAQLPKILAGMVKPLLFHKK
Test details: NVS_NR_hPR: NovaScreen (NVS) Nuclear Receptor Binding Assay for human Progestron Receptor (PR) (AID 2283360);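 further: active means loss of bound radioligand signal versus DMSO baseline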
Records with an inconclusive call do not appear. Activity calls are given as the source filed them. How the source made its calls: active means hit-call score of the fitted dose curve at least 0.9, where 1 is the maximum; inconclusive means response in the unintended direction; inactive means score below 0.9.
Please reply with one of these outcomes: active, inactive

Check out these entries, answers already filled in.
INSERT INTO measurements (compound, target_desc, category) VALUES
  ('COC(=O)CCC(=O)OC', 'PGR (gene 5241) (UniProt P06401)', 'inactive'),
  ('CC(=O)O', 'PGR (gene 5241) (UniProt P06401)', 'inactive'),
  ('CSc1ccc(Oc2ccc(S(N)(=O)=O)cc2CN(C)C)cc1C', 'PGR (gene 5241) (UniProt P06401)', 'inactive'),
  ('CC(=O)[C@@]1(O)CC[C@H]2[C@@H]3CCC4=CC(=O)CC[C@]4(C)[C@H]3CC[C@@]21C', 'PGR (gene 5241) (UniProt P06401)', 'active'),
  ('Cn1cnc2c1c(=O)[nH]c(=O)n2C', 'PGR (gene 5241) (UniProt P06401)', 'inactive');

Returns: the outcome recorded for `O=C(O)c1cccnc1` in this assay. inactive

----------
Read-out: Cytochrome P450 (CYP2B6), CYP2B6 (gene 1555)
Test details: LTEA_HepaRG_CYP2B6: Life Technologies and Expression Analysis (LTEA) Assay for Cytochrome P450 (CYP2B6) using HepaRG (AID 2283481)
Assay conditions: mRNA level, 48 h; actives raise or lower the signal
Active and inactive are the calls of the source. How the source made its calls: active means hit-call score of the fitted dose curve at least 0.9, where 1 is the maximum; inactive means score below 0.9.
Hello, when you answer, please use one of the following outcomes: label 1 = active, label 0 = inactive

INSERT INTO results (compound, category) VALUES
  ('CCCC[C@H]1CN(CC2CCOCC2)C(=O)OC12CCN(C1(C)CCN(C(=O)c3c(C)ncnc3C)CC1)CC2', 'label 0');

Proceed to the following item.
Given `CN(C)CCCN1c2ccccc2Sc2ccc(Cl)cc21` , state the outcome it received in this test. label 1

----------
Test details: BSK_3C_VCAM1: BioMAP Diversity Plus: 3C Assay for Vascular cell adhesion molecule 1 (VCAM1) Biomarker Activity (AID 2282999)
Assay conditions: BioMAP 3C HUVEC, VCAM1 ELISA, cytokine-stimulated; actives raise or lower the signal
The source made the active and inactive calls. Rule for the calls: active = hit-call score of the fitted dose curve at least 0.9, where 1 is the maximum; inactive = score below 0.9.
Write down one outcome, taken from 1 = active, 0 = inactive

Worked set:
INSERT INTO measurements (compound, category) VALUES
  ('O=C(O)c1cccnc1', 0),
  ('Oc1ccccc1O', 1);

Per the records of this test, what outcome belongs to `CCCC[C@H]1CN(CC2CCOCC2)C(=O)OC12CCN(C1(C)CCN(C(=O)c3c(C)ncnc3C)CC1)CC2` ? 0

Please state the recorded outcome for this compound: `NCCOCCOCCN` 0

# outcome recorded in this test, key = `CCOCCOCCO` 0

Assay outcome for `O=C1NC(=O)C(c2ccccc2)(c2ccccc2)N1` : what was it? 0

// param item: `CC(=O)O` ; yields the recorded call 0

Dear colleague, could you share the recorded outcome for `Cc1cc(Cc2ccc(N)c(C)c2)ccc1N` when you have a moment? 0

// return assay outcome for `C=CCCCCCCCCCCCC` 0

----------
Read-out: CYP2C8 (gene 1558)
Test details: LTEA_HepaRG_CYP2C8: Life Technologies and Expression Analysis (LTEA) Assay for CYP2C8 using HepaRG (AID 2283483)
Assay conditions: mRNA level, 48 h; actives raise or lower the signal
Calls of active or inactive are those of the source. Rule for the calls: active = hit-call score of the fitted dose curve at least 0.9, where 1 is the maximum; inactive = score below 0.9.
Return exactly one item of active, inactive

INSERT INTO measurements (compound, category) VALUES
  ('CC(=O)OCC(COC(C)=O)OC(C)=O', 'inactive');

Assay outcome for `COC(=O)[C@H]1[C@H]2C[C@@H]3c4[nH]c5cc(OC)ccc5c4CCN3C[C@H]2C[C@@H](OC(=O)c2cc(OC)c(OC)c(OC)c2)[C@@H]1OC` : what was it? active

// param item: `C/C=C/c1ccc(OC)cc1` ; yields the recorded call inactive

For C#CC(O)C(CC)CCCC (configuration not stated) , what call appears in the results of this test? inactive

Please indicate how the test categorized `CC(C)COC(=O)CCCCC(=O)OCC(C)C` . inactive

----------
Target desc: human Matrix Metalloproteinase-7 (MMP7), MMP7 (gene 4316) (UniProt P09237)
Sequence (P09237 whole entry, looked up): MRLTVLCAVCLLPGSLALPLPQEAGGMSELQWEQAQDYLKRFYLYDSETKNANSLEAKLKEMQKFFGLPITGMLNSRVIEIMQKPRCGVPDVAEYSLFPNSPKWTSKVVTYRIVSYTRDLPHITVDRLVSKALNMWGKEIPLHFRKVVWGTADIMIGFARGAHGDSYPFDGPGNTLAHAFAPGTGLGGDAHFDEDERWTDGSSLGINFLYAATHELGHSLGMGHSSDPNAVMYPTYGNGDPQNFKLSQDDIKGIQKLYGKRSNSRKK
Test details: NVS_ENZ_hMMP7: NovaScreen (NVS) Enzymatic Assay for human Matrix Metalloproteinase-7 (MMP7) (AID 2283183)
Inconclusive results are not listed. The source made the active and inactive calls. The calls were made as follows: active = hit-call score of the fitted dose curve at least 0.9, where 1 is the maximum; inconclusive = response in the unintended direction; inactive = score below 0.9.
Outcomes you can answer with include only these: t = active, f = inactive

INSERT INTO assay_data (compound, category) VALUES
  ('O=C(O)c1[nH]n(-c2ccc(S(=O)(=O)O)cc2)c(=O)c1N=Nc1ccc(S(=O)(=O)O)cc1', 't'),
  ('CCc1cc(C2=C(C(=O)O)N(c3ccccc3C(F)(F)F)S(=O)(=O)c3ccccc32)cc2c1OCO2', 'f'),
  ('CN(C)CCCN(C)CCCN(C)C', 'f');

Please find the next compound below.
Called result for `O=C1c2c(O)cccc2Cc2cccc(O)c21` t

----------
Read-out: flavin-containing dimethylaniline monooxygenases 3 (FMO3), FMO3 (gene 2328)
Test details: LTEA_HepaRG_FMO3: Life Technologies and Expression Analysis (LTEA) Assay for flavin-containing dimethylaniline monooxygenases 3 (FMO3) using HepaRG (AID 2283453)
Assay conditions: mRNA level, 48 h; actives raise or lower the signal
Calls of active or inactive are those of the source. Rule for the calls: active = hit-call score of the fitted dose curve at least 0.9, where 1 is the maximum; inactive = score below 0.9.
Returns: one label drawn from active, inactive

Called result for `O=C(NS(=O)(=O)/C=C/c1cccs1)c1ccc(F)cc1Br` inactive

Assay outcome for `CCCCCCCCCCCCCCCCO` : what was it? inactive

Test call for this compound, please: `O=C1NC(=O)C(c2ccccc2)(c2ccccc2)N1` inactive

Name the outcome recorded for `Cc1cn([C@H]2C=C[C@@H](CO)O2)c(=O)[nH]c1=O` in the assay. inactive

Which result was noted for this compound in the test: CCC(C)N(C)C(=O)c1cc2ccccc2c(-c2ccccc2Cl)n1 (centres undefined) inactive

# fetch the recorded call for `COC(=O)CCCC(=O)OC` here inactive

Field: outcome | Entry: `COC(=O)CCC(=O)OC` inactive

Recorded call for `CN(C)C(=O)NC1(c2ccccc2)CCN(CCC[C@]2(c3ccc(Cl)c(Cl)c3)CCCN(C(=O)c3ccccc3)C2)CC1` ? active

What did the test return for `CN(C)C(=O)NC1(c2ccccc2)CCN(CC[C@@]2(c3ccc(F)c(F)c3)CN(C(=O)c3ccccc3)CCO2)CC1` ? active

Write down the call the test reported for this compound. Item: `c1ccc2occc2c1` inactive

Give the logged outcome of this assay for the following compound: `Cc1occc(=O)c1O` inactive

Can you look up the reported call for `CO[C@@H]1COCC[C@@H]1N[C@@H]1CC[C@@](C(=O)N2CCc3ncc(C(F)(F)F)cc3C2)(C(C)C)C1` for me? inactive

What outcome does the record of this test show for `Cc1ccc(C(C)(C)C)c(O)c1` ? inactive

Please state the recorded outcome for this compound: `COc1ccc(C(=O)Nc2nc3ccccc3c(NCc3ccccc3)c2C#N)cc1` active

Hi, sorry to bother you, what did the test record for `CC1=C(C)S(=O)(=O)CCS1(=O)=O` ? active

# lookup: test call for CC(=O)CC(c1ccccc1)c1c(O)c2ccccc2oc1=O (centres undefined) inactive

----------
Test details: ACEA_ER_AUC_viability: ACEA Biosciences xCELLigence Real-Time Cell Analysis on Estrogen Receptor Agonism for Viability (AID 2283782);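 further: continuous compound exposure with impedance area under curve over 80 h; hit means loss of impedance signal meaning reduced cell growth or viability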
Inconclusive results are not listed. Activity calls are given as the source filed them. How the source made its calls: active means hit-call score of the fitted dose curve at least 0.9, where 1 is the maximum; inconclusive means response in the unintended direction; inactive means score below 0.9.
Respond only with the outcome that fits, drawn from active, inactive

Answered cases to consult:
INSERT INTO measurements (compound, category) VALUES
  ('Cc1cc(SC2=C(O)C[C@@](CCc3ccc(N)cc3)(C(C)C)OC2=O)c(C(C)(C)C)cc1CO', 'inactive'),
  ('CCCCCCCCCCCCCCCCO', 'inactive'),
  ('Cc1ccc(-c2cc(C(F)(F)F)nn2-c2ccc(S(N)(=O)=O)cc2)cc1', 'active');

Next:
// param item: `COc1ccc(OC(F)(F)F)cc1CN[C@H]1CCCN[C@H]1c1ccccc1` ; yields the recorded call active

----------
Read-out: Alpha-fetoprotein (AFP) gene, AFP (gene 174)
Test details: LTEA_HepaRG_AFP: Life Technologies and Expression Analysis (LTEA) Assay for Alpha-fetoprotein (AFP) gene using HepaRG (AID 2283472);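 on AC50: AFP transcript by TaqMan qRT-PCR normalized to ACTB GAPDH and POLR2A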
Assay conditions: mRNA level, 48 h; actives raise or lower the signal
Description: It is a marker of Undifferentiated hepatocyte.Data from the assay component LTEA_HepaRG_AFP was analyzed into 1 endpoint. This assay endpoint, LTEA_HepaRG_AFP, was analyzed with bidirectional fitting relative to DMSO as the negative control and baseline of activity. Using a type of inducible reporter, measures of mRNA induction for gain or loss-of-signal activity can be used to understand regulation of transcription factor activity. […]
Calls of active or inactive are those of the source. The calls were made as follows: active = hit-call score of the fitted dose curve at least 0.9, where 1 is the maximum; inactive = score below 0.9.
Experimental endpoint: AC50

Completed entries (count: 5):
INSERT INTO assay_data (compound, val) VALUES
  ('O=C1NC(=O)C(c2ccccc2)(c2ccccc2)N1', 'inactive'),
  ('C=CCCCCCCCCCCCC', 'inactive'),
  ('CO[C@@H]1COCC[C@@H]1N[C@@H]1CC[C@@](C(=O)N2CCc3ncc(C(F)(F)F)cc3C2)(C(C)C)C1', 'inactive'),
  ('c1ccc2occc2c1', 'inactive'),
  ('O=C(NS(=O)(=O)/C=C/c1cccs1)c1ccc(F)cc1Br', '50 µM (active)');

Field request: AC50 | item: CC(=O)OC1CC(C)OC(C)O1 (stereo not drawn) inactive

Reported AC50 for `C=CCc1ccc(OC)c(OC)c1` : what is it? inactive

Which AC50 reading was recorded for the compound CC(C)NCC(O)c1ccc(O)c(O)c1 (stereo not drawn) ? 0.261 µM (active)

Which measured AC50 value corresponds to `Cc1cn([C@H]2C=C[C@@H](CO)O2)c(=O)[nH]c1=O` ? inactive

Field request: AC50 | item: `O=C(O)CN(CC(=O)O)CC(=O)O` inactive

// lookup AC50 for `Cc1cc(SC2=C(O)C[C@@](CCc3ccc(N)cc3)(C(C)C)OC2=O)c(C(C)(C)C)cc1CO` inactive

AC50 for `CC(C)(O)c1ccc(CNC(=O)c2cccnc2Oc2ccc(F)cc2)cc1` ? inactive

Fill blank: measured AC50 of the compound CCC(C)N(C)C(=O)c1cc2ccccc2c(-c2ccccc2Cl)n1 (stereo not drawn) is ____. 31.8 µM (active)

All figures here come from PubChem BioAssay (EPA / NIEHS).
